Origin of values: paper PMC6071991

# Study system: GPER (Homo sapiens, UniProt Q99527)
# Sequence (Q99527 whole entry): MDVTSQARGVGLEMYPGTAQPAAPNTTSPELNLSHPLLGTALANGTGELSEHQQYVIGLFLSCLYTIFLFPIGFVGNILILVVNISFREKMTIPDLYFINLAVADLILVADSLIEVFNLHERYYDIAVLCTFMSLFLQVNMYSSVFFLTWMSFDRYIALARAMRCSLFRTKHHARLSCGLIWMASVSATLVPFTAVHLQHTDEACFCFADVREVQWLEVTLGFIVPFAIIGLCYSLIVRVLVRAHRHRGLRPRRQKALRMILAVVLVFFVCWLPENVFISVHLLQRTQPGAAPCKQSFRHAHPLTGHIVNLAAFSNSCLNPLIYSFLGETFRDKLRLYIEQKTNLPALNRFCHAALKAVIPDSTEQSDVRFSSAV
# Method notes: cell-based
Hi! Could you tag entries with IC50 below 5 µM as yes, and those at or above as no? Much appreciated.

{"Molecule": "Oc1c(Br)cc(Br)c(Oc2cc(Br)c(Br)cc2Br)c1Br [3ʹ-OH-BDE-154]", "Study system": "GPER (Homo sapiens, UniProt Q99527)", "Assigned category": "yes"}
{"Molecule": "Oc1cc(Oc2cc(Br)c(Br)cc2Br)c(Br)cc1Br [5ʹ-OH-BDE-099]", "Study system": "GPER (Homo sapiens, UniProt Q99527)", "Assigned category": "yes"}
{"Molecule": "Oc1c(Br)c(Br)c(Oc2c(Br)cc(Br)c(Br)c2Br)c(Br)c1Br [4ʹ-OH-BDE-201]", "Study system": "GPER (Homo sapiens, UniProt Q99527)", "Assigned category": "no"}
{"Molecule": "Oc1c(Br)c(Br)c(Br)c(Br)c1Oc1cc(Br)c(Br)cc1Br [6-OH-BDE-180]", "Study system": "GPER (Homo sapiens, UniProt Q99527)", "Assigned category": "yes"}
{"Molecule": "Oc1c(Br)c(Br)c(Oc2cc(Br)c(Br)cc2Br)c(Br)c1Br [4-OH-BDE-187]", "Study system": "GPER (Homo sapiens, UniProt Q99527)", "Assigned category": "no"}
{"Molecule": "Oc1c(Br)cc(Br)c(Oc2ccc(Br)cc2Br)c1Br [3-OH-BDE-100]", "Study system": "GPER (Homo sapiens, UniProt Q99527)", "Assigned category": "yes"}
